Target: Myeloid Cell Leukemia 1 (Mcl-1) (Homo sapiens, UniProt Q07820)
Construct: Terbium (Tb) label; means of attachment not described
Sequence (Q07820 whole entry): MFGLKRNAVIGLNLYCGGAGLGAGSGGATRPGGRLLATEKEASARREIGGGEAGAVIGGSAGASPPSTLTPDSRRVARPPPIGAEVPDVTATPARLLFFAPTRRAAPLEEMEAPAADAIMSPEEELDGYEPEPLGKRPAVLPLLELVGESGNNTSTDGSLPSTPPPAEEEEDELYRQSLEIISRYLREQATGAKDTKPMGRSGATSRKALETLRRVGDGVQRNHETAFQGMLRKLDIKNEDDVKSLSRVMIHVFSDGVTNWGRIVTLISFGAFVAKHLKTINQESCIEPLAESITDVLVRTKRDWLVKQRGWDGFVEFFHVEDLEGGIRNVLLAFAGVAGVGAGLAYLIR
Assay: biochemical
Assay type: binding
Details: TB-MCL1 Ki (nM)
observedProperty: log10 Ki (log10 of the value in nM)
Log10 applied to Ki; unit prior to transform: nM.

[ask] What value of log10 Ki has been recorded for this entry: COCCOCCn1nc2c(c1C)-c1c(Cl)ccc3c1c(C)c(C(=O)O)n3CCCOc1cc(cc3c(F)c(F)ccc13)CCc1cc(nn1C)CSC2 (single isomer, unassigned) [Compound 65]
[reply] 0.47

[ask] What value of log10 Ki has been recorded for this entry: Cc1c(C(=O)O)n2c3ccc(Cl)c(c13)-c1c(nn(CCC3CCOCC3)c1C)CSCc1cc(n(C)n1)CCc1cc(c3ccc(F)cc3c1)OCCC2 [Compound 23]
[reply] -1.80

[ask] What value of log10 Ki has been recorded for this entry: COCCOCCn1nc(C)c2c1CS(=O)(=O)Cc1cc(n(C)n1)CCc1cc(c3ccc(F)cc3c1)OCCCn1c(C(=O)O)c(C)c3c-2c(Cl)ccc31 (single isomer, unassigned) [Compound 67]
[reply] -1.77

[ask] What value of log10 Ki has been recorded for this entry: Cc1c(C(=O)O)n2c3ccc(Cl)c(c13)-c1c(nn(C)c1C)CS(=O)(=O)Cc1cc(n(C)n1)CCc1cc(c3ccccc3c1)OCCC2 [Compound 6]
[reply] -1.23

[ask] What value of log10 Ki has been recorded for this entry: COCCOCCn1nc(C)c2c1CSCc1cc(n(C)n1)CCc1cc(c3ccc(F)c(F)c3c1)OCCCn1c(C(=O)O)c(C)c3c-2c(Cl)ccc31 [Compound 62]
[reply] -1.57

---

Tested on: MOLP-8 human multiple myeloma cell line
Test: Caspase-Glo 3/7 apoptosis induction assay in MOLP-8 cells
Format: cell-based
Conditions: Homo sapiens, MOLP-8, 2 h, read-out: MOLP8 Caspase-Glo AC50 (nM) LD value, MOLP-8 cells, 2 hours at 37° C., caspase-3/7 luminescence; averaged over all runs on all batches
// assign yes (1) if AC50 falls strictly below 30 nM, else no (0) (ties count as no (0))

[ask] # TODO verify AC50 < 30 nM strictly for this compound: COCCOCCn1nc(C)c2c1C[S+]([O-])Cc1cc(n(C)n1)CCc1cc(c3ccc(F)cc3c1)OCCCn1c(C(=O)O)c(C)c3c-2c(Cl)ccc31 (single isomer, unassigned)
[reply] no (0)

[ask] # TODO verify AC50 < 30 nM strictly for this compound: CNCCn1nc(C)c2c1CSCc1cc(n(C)n1)CCc1cc(c3ccc(F)cc3c1)OCCCn1c(C(=O)O)c(C)c3c-2c(Cl)ccc31 (single isomer, unassigned)
[reply] no (0)

[ask] # TODO verify AC50 < 30 nM strictly for this compound: COCCOCCOCCn1nc2c(c1C)-c1c(Cl)ccc3c1c(C)c(C(=O)O)n3CCCOc1cc(cc3cc(F)ccc13)CCc1cc(nn1C)CSC2
[reply] no (0)

[ask] # TODO verify AC50 < 30 nM strictly for this compound: Cc1nn(CCC2CCOCC2)c2c1-c1c(Cl)ccc3c1c(C)c(C(=O)O)n3CCCOc1cc(cc3cc(F)ccc13)CCc1cc(nn1C)CSC2
[reply] yes (1)

[ask] # TODO verify AC50 < 30 nM strictly for this compound: Cc1nn(C)c2c1-c1c(Cl)ccc3c1c(C)c(C(=O)O)n3CCCOc1cc(cc3cc(F)ccc13)CCc1cc(nn1C)CSC2
[reply] yes (1)

---

Target: Myeloid Cell Leukemia 1 (Mcl-1) (Homo sapiens, UniProt Q07820)
Construct: Terbium (Tb) label; means of attachment not described
Assay: biochemical
Assay type: binding
Settings: TB-MCL1 Ki (nM)
observedProperty: Ki (nM)
Write it as a number; the unit nM goes unstated.

[ask] What value of Ki has been recorded for this entry: COCCOCCn1nc(C)c2c1CSCc1cc(n(C)n1)CCc1cc(c3ccc(F)c(F)c3c1)OCCCn1c(C(=O)O)c(C)c3c-2c(Cl)ccc31 (single isomer, unassigned) [Compound 64]
[reply] 2.33

[ask] What value of Ki has been recorded for this entry: CNCCn1nc2c(c1C)-c1c(Cl)ccc3c1c(C)c(C(=O)O)n3CCCOc1cc(cc3cc(F)ccc13)CCc1cc(nn1C)CSC2 (single isomer, unassigned) [Compound 68]
[reply] 0.008

[ask] What value of Ki has been recorded for this entry: Cc1c(C(=O)O)n2c3ccc(Cl)c(c13)-c1c(nn(C)c1C)CSCc1cc(n(C)n1)CCc1cc(c3ccccc3c1)OCCC2 [Compound 2]
[reply] 0.483

[ask] What value of Ki has been recorded for this entry: COCCOCCOCCn1nc2c(c1C)-c1c(Cl)ccc3c1c(C)c(C(=O)O)n3CCCOc1cc(cc3cc(F)ccc13)CCc1cc(nn1C)CSC2 [Compound 17]
[reply] 0.018

[ask] What value of Ki has been recorded for this entry: Cc1c(C(=O)O)n2c3ccc(Cl)c(c13)-c1c(nn(C)c1C)CSCc1cc(n(C)n1)CCc1cc(c3c(F)cccc3c1)OCCC2 [Compound 5]
[reply] 0.411

[ask] What value of Ki has been recorded for this entry: COCCOCCn1nc(C)c2c1C[S+]([O-])Cc1cc(n(C)n1)CCc1cc(c3ccc(F)cc3c1)OCCCn1c(C(=O)O)c(C)c3c-2c(Cl)ccc31 (single isomer, unassigned) [Compound 50]
[reply] 0.013

[ask] What value of Ki has been recorded for this entry: COCCOCCn1nc(C)c2c1C[S+]([O-])Cc1cc(n(C)n1)CCc1cc(c3ccc(F)cc3c1)OCCCn1c(C(=O)O)c(C)c3c-2c(Cl)ccc31 (single isomer, unassigned) [Compound 49]
[reply] 0.01

[ask] What value of Ki has been recorded for this entry: COCCOCCOCCn1nc(C)c2c1CSCc1cc(n(C)n1)CCc1cc(c3ccc(F)cc3c1)OCCCn1c(C(=O)O)c(C)c3c-2c(Cl)ccc31 [Compound 16]
[reply] 0.024

[ask] What value of Ki has been recorded for this entry: Cc1c(C(=O)O)n2c3ccc(Cl)c(c13)-c1c(nn(C)c1C)CS(=O)(=O)Cc1cc(n(C)n1)CCc1cc(c3ccccc3c1)OCCC2 [Compound 7]
[reply] 1.71

[ask] What value of Ki has been recorded for this entry: Cc1nn(CCOCCO)c2c1-c1c(Cl)ccc3c1c(C)c(C(=O)O)n3CCCOc1cc(cc3cc(F)ccc13)CCc1cc(nn1C)CSC2 [Compound 51]
[reply] 0.013

[ask] What value of Ki has been recorded for this entry: COCC(COC)n1nc(C)c2c1CSCc1cc(n(C)n1)CCc1cc(c3ccc(F)cc3c1)OCCCn1c(C(=O)O)c(C)c3c-2c(Cl)ccc31 [Compound 20]
[reply] 0.026

[ask] What value of Ki has been recorded for this entry: COCCn1nc2c(c1C)-c1c(Cl)ccc3c1c(C)c(C(=O)O)n3CCCOc1cc(cc3cc(F)ccc13)CCc1cc(nn1C)CSC2 [Compound 19]
[reply] 0.035

[ask] What value of Ki has been recorded for this entry: COCCOCCn1nc2c(c1C)-c1c(Cl)ccc3c1c(C)c(C(=O)O)n3CCCOc1cc(cc3c(F)c(F)ccc13)CCc1cc(nn1C)CSC2 (single isomer, unassigned) [Compound 63]
[reply] 0.026

[ask] What value of Ki has been recorded for this entry: COCCn1nc(C)c2c1CSCc1cc(n(C)n1)CCc1cc(c3ccc(F)cc3c1)OCCCn1c(C(=O)O)c(C)c3c-2c(Cl)ccc31 [Compound 18]
[reply] 0.025

[ask] What value of Ki has been recorded for this entry: COCC(COC)n1nc2c(c1C)-c1c(Cl)ccc3c1c(C)c(C(=O)O)n3CCCOc1cc(cc3cc(F)ccc13)CCc1cc(nn1C)CSC2 [Compound 21]
[reply] 0.066

[ask] What value of Ki has been recorded for this entry: Cc1nn(C)c2c1-c1c(Cl)ccc3c1c(C)c(C(=O)O)n3CCCOc1cc(cc3cc(F)ccc13)CCc1cc(nn1C)CSC2 [Compound 28]
[reply] 0.028

---

Provide the reported AC50 of each item.
Test system: MOLP-8 human multiple myeloma cell line
Test: Caspase-Glo 3/7 apoptosis induction assay in MOLP-8 cells
Format: cell-based
Details: Homo sapiens, MOLP-8, 2 h, read-out: MOLP8 Caspase-Glo AC50 (nM) LD value, MOLP-8 cells, 2 hours at 37° C., caspase-3/7 luminescence; averaged over all runs on all batches
Protocol: MCL-1 is a regulator of apoptosis and is highly over-expressed in tumor cells that escape cell death. […] Cell cultures were maintained between 0.2 and 2.0×10^6 cells/mL. […] The cells were counted and diluted as needed. […] Compounds were delivered in assay-ready plates (Proxiplate) and stored at −20° C. Assays always include 1 reference compound plate containing reference compounds. […] The plates were then sealed and measured after 30 minutes. […]
Write it as a number; the unit nM goes unstated.

[ask] Form field: AC50 recorded for COCCOCCn1nc(C)c2c1CSCc1cc(n(C)n1)CCc1cc(c3ccc(F)c(F)c3c1)OCCCn1c(C(=O)O)c(C)c3c-2c(Cl)ccc31 [Compound 62] with MOLP-8 human multiple myeloma cell line (enter value)
[reply] 11.3

[ask] Form field: AC50 recorded for CNCCn1nc2c(c1C)-c1c(Cl)ccc3c1c(C)c(C(=O)O)n3CCCOc1cc(cc3cc(F)ccc13)CCc1cc(nn1C)CSC2 (single isomer, unassigned) with MOLP-8 human multiple myeloma cell line (enter value)
[reply] 440

[ask] Form field: AC50 recorded for COCCOCCn1nc(C)c2c1CS(=O)(=O)Cc1cc(n(C)n1)CCc1cc(c3ccc(F)cc3c1)OCCCn1c(C(=O)O)c(C)c3c-2c(Cl)ccc31 (single isomer, unassigned) with MOLP-8 human multiple myeloma cell line (enter value)
[reply] 104

[ask] Form field: AC50 recorded for COCCOCCOCCn1nc(C)c2c1CSCc1cc(n(C)n1)CCc1cc(c3ccc(F)cc3c1)OCCCn1c(C(=O)O)c(C)c3c-2c(Cl)ccc31 with MOLP-8 human multiple myeloma cell line (enter value)
[reply] 19.7

[ask] Form field: AC50 recorded for Cc1c(C(=O)O)n2c3ccc(Cl)c(c13)-c1c(nn(C)c1C)CSCc1cc(n(C)n1)CCc1cc(c3c(F)cccc3c1)OCCC2 with MOLP-8 human multiple myeloma cell line (enter value)
[reply] 1290

[ask] Form field: AC50 recorded for COCC(COC)n1nc2c(c1C)-c1c(Cl)ccc3c1c(C)c(C(=O)O)n3CCCOc1cc(cc3cc(F)ccc13)CCc1cc(nn1C)CSC2 with MOLP-8 human multiple myeloma cell line (enter value)
[reply] 49.5

[ask] Form field: AC50 recorded for Cc1nn(CCCN)c2c1-c1c(Cl)ccc3c1c(C)c(C(=O)O)n3CCCOc1cc(cc3cc(F)ccc13)CCc1cc(nn1C)CSC2 with MOLP-8 human multiple myeloma cell line (enter value)
[reply] 540

[ask] Form field: AC50 recorded for COCCn1nc2c(c1C)-c1c(Cl)ccc3c1c(C)c(C(=O)O)n3CCCOc1cc(cc3cc(F)ccc13)CCc1cc(nn1C)CSC2 with MOLP-8 human multiple myeloma cell line (enter value)
[reply] 20.7

[ask] Form field: AC50 recorded for Cc1nn(CCOCCO)c2c1-c1c(Cl)ccc3c1c(C)c(C(=O)O)n3CCCOc1cc(cc3cc(F)ccc13)CCc1cc(nn1C)CSC2 with MOLP-8 human multiple myeloma cell line (enter value)
[reply] 87.3

[ask] Form field: AC50 recorded for COCCn1nc(C)c2c1CSCc1cc(n(C)n1)CCc1cc(c3ccc(F)cc3c1)OCCCn1c(C(=O)O)c(C)c3c-2c(Cl)ccc31 with MOLP-8 human multiple myeloma cell line (enter value)
[reply] 17

[ask] Form field: AC50 recorded for COCC(COC)n1nc(C)c2c1CSCc1cc(n(C)n1)CCc1cc(c3ccc(F)cc3c1)OCCCn1c(C(=O)O)c(C)c3c-2c(Cl)ccc31 with MOLP-8 human multiple myeloma cell line (enter value)
[reply] 8.8

[ask] Form field: AC50 recorded for COCCOCCn1nc(C)c2c1CSCc1cc(n(C)n1)CCc1cc(c3ccc(F)c(F)c3c1)OCCCn1c(C(=O)O)c(C)c3c-2c(Cl)ccc31 (single isomer, unassigned) [Compound 64] with MOLP-8 human multiple myeloma cell line (enter value)
[reply] 2100

[ask] Form field: AC50 recorded for Cc1c(C(=O)O)n2c3ccc(Cl)c(c13)-c1c(nn(C)c1C)CSCc1cc(n(C)n1)CCc1cc(c3ccccc3c1)OCCC2 with MOLP-8 human multiple myeloma cell line (enter value)
[reply] 1260
